MEASURED_TARGET: T1, murine CDH3 on cells (mouse, UniProt P10287 100-822)
T1 construct: negative control; also called mouse CDH3
T1 sequence: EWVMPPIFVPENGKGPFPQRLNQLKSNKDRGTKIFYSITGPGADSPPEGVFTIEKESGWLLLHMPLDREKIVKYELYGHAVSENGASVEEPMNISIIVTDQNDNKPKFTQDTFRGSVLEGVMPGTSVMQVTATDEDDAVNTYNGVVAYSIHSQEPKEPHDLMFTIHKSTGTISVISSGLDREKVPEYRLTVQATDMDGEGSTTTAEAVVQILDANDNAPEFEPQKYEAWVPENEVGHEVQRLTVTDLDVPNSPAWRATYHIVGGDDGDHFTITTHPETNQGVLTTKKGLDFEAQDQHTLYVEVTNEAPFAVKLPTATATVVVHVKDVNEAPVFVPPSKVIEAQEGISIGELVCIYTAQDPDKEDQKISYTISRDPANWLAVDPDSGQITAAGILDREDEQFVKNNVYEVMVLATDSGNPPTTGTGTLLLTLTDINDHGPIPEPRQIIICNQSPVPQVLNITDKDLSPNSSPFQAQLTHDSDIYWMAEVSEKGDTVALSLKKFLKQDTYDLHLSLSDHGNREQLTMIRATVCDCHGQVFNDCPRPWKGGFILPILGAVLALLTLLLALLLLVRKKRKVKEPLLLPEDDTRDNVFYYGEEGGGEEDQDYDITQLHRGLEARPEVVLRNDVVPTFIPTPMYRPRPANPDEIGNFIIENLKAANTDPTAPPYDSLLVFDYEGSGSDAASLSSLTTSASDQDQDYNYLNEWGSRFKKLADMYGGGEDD
EXPERIMENTAL_PROTOCOL: flow cytometry, transfected CHO cells; crude periplasmic scFv extract; anti-FLAG M2 + anti-mouse IgG Fcγ-PE

BINDER	binding result
CDH3-33 scFv (scFv) scFv: EVQLVEQPGAELVRPGTSVKLSCKASGYTFTSYWMHWVKQRPGQGLEWIGVIDTSDSYTIYNQKFKGKATLTVDTSSSTAYMQLSSLTSGDSSVYFCARSGPGYFDVWGQGTTVTVSSGGGGSGGGGSGGGGSELVMTQSPASLSASVGETVTITCRASGNIHNYLAWYQQKQGKSPQLLVYNAKTLADGVPSRFSGSGSGTQYSLKINSLQPEDFGTYYCQHFWSTPYTFGGGTKLEIK	no binding
CDH3-9 (scFv, Used as crude periplasmic extract and detected through a FLAG tag; also called CDH3-9 scFv) scFv: EVQLVEESGGDLVKPGGSLKLSCAASGFTFSTYGMSWVRQTPDKRLEWVATISSGGHYSYYPDSVKGRFTISRDNAKNTLYLQMSSLKSEDTAMYYCASYYYGSPFAYWGQGTTVTVSSGGGGSGGGGSGGGGSELQMTQSPSSLSASLGERVSLTCRASQDIGSSLNWLQQKPDGTIKRLIYDTSSLDSGVPKRFSGSRSGSDYSLTISSLESEDFGDYYCVQYGSSPLTFGAGTKLEIK	no binding
CDH3-32 scFv (scFv) scFv: EVQLVEQPGAELVRPGTSVKLSCKASGYTFTSYWMHWVKQRPGQGLEWIGVIDTSDSYTIYNQKFKGKATLTVDTSSSTAYMQLSSLTSEDSSVYFCARSGPGYFDVWGQGTTVTVSSGGGGSGGGGSGGGGSELQMTQSPASLSASVGETVTITCRASENIYSYLAWYQQKQGKSPQLLVYNAKTLAEGVPSRFSGSGSGTQFSLKINSLQPEDFGSYYCQHHYGTPYTFGGGTKLEIK	no binding
CDH3-10 scFv (scFv) scFv: EVQLVEESGGGLVKPGGSLKLSCAASGFTFSSYAMSWVRQTPDKRLEWVATISSGGHYTYYPDSVKGRFTISRDNAKNTLYLQMSSLKSEDTAMYYCASYYYGIPFGYWGQGTTVTVSSGGGGSGGGGSGGGGSELVMTQSPSSLSASLGEGVSLTCRASQDIGINLIWLRQEPDGTIKRLIYDTSSLDSGVPKRFSGSRSGSDYSLTISSLESEDFVHYYCLQYGSSPLTFGAGTKLEIK	no binding
CDH3-8 (scFv, Used as crude periplasmic extract and detected through a FLAG tag; also called CDH3-8 scFv) scFv: EVQLVEQSGAEVVKPGASVKITCKASGYAFSSYWMNWVRQRPGKGLEWIGHIYPGDGDTNYNGKFKGKVTLTADKSSNTAYMQLSDLTPEDSAVYFCARDRGSFGAWFAYWGQGTTVTVSSGGGGSGGGGSGGGGSELVMTQTPSSLSASLGDRVTISCRASQDISNYLNWYQQKPDGTVKLLIYYTSRLHSGVPSRFSGSGSGTDYSLTISNLEQEDIATYFCQQGNRNPPTFGGGTKLEIK	no binding
